# Tested on: RAW264.7
# test_details: Antiinflammatory activity against LPS-stimulated mouse RAW264.7 cells assessed as nitrite accumulation after 20 hrs by fluorimetry
# Format: functional, cell-based
# condition_parameters: RAW264.7, 20 h
quantity: IC50

molecule	experimental_system	IC50
COc1cc(/C=C2\CCn3c2nc2ccccc2c3=O)cc(OC)c1OC(C)=O	RAW264.7	4.2 µM
COc1cc(/C=C2\CCn3c2nc2ccccc2c3=O)cc(OC)c1	RAW264.7	> 10 µM
O=c1c2ccccc2nc2n1CC/C2=C\c1ccc(O)cc1	RAW264.7	> 10 µM
CC(=N)NCc1cccc(CN)c1 [1400W]	RAW264.7	0.3 µM
CS(=O)(=O)Nc1ccc([N+](=O)[O-])cc1OC1CCCCC1 [NS-398]	RAW264.7	> 10 µM

Item under review: `O=c1c2ccccc2nc2n1CC/C2=C\c1ccc(F)cc1` . Reported IC50?
> 10 µM

Item under review: `O=c1c2ccccc2nc2n1CC/C2=C\c1ccccc1` . Reported IC50?
> 10 µM

Item under review: COc1cc(/C=C2\CCn3c2nc2ccccc2c3=O)cc(OC)c1O [ISAINDIGOTONE] . Reported IC50?
> 10 µM

Item under review: `O=c1c2ccccc2nc2n1CC/C2=C\c1ccc(C(F)(F)F)cc1` . Reported IC50?
> 10 µM

Item under review: `CC(=O)Oc1ccc(/C=C2\CCn3c2nc2ccccc2c3=O)cc1` . Reported IC50?
1.8 µM

* * *

# experimental_system: Polyunsaturated fatty acid 5-lipoxygenase (Homo sapiens)
# Sequence (whole entry): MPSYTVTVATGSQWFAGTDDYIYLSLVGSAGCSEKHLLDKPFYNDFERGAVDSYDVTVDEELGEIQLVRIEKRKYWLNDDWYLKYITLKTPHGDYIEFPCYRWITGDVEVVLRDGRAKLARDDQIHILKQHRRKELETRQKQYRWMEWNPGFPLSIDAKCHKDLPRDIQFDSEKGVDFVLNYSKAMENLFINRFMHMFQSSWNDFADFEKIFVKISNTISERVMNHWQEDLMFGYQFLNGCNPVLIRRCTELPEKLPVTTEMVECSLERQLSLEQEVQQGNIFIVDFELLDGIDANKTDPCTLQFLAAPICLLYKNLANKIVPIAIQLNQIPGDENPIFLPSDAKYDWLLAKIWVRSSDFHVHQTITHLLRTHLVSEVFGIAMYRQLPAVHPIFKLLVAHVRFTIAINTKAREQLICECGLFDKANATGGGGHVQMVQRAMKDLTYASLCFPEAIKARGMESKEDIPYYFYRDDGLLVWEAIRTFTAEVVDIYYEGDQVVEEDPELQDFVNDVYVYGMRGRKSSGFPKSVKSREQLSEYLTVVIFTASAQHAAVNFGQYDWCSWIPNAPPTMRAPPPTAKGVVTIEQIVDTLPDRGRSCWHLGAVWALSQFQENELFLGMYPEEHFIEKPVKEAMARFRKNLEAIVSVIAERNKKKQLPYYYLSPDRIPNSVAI
# test_details: Inhibition of 5LO-mediated LTB4 production in calcium ionophore A23187-stimulated human neutrophils at 10 uM by RIA
quantity: log10(Activity) (log10 of the value in ng/mL)
Transform log10 | Measure Activity | Unit ng/mL

compound	log10(Activity)
O=c1c2ccccc2nc2n1CC/C2=C\c1ccc(F)cc1	1.77

We now examine a further compound.
Item under review: `COc1cc(/C=C2\CCn3c2nc2ccccc2c3=O)cc(OC)c1OC(C)=O` . Reported log10(Activity)?
1.13

* * *

# System: RAW264.7
# test_details: Antiinflammatory activity against LPS-stimulated mouse RAW264.7 cells assessed as nitrite accumulation at 10 uM after 20 hrs by fluorimetry relative to control
# Type: functional
Reported Activity is given for each of the following molecules.
Don't forget the unit after the number, please.

Example entries and their recorded answers appear below.
O=c1c2ccccc2nc2n1CC/C2=C\c1ccc(F)cc1 438 ng/mL
O=c1c2ccccc2nc2n1CC/C2=C\c1ccccc1 337.1 ng/mL

We now examine a further molecule.
Item under review: `COc1cc(/C=C2\CCn3c2nc2ccccc2c3=O)cc(OC)c1` . Reported Activity?
437.2 ng/mL

* * *

# System: RAW264.7
# test_details: Antiinflammatory activity against LPS-stimulated mouse RAW264.7 cells assessed as nitrite accumulation at 10 uM after 20 hrs by fluorimetry relative to control
# Assay type: functional
Please use fulfilled for Activity under 400 ng/mL and not fulfilled for everything else, ties included.

Example cases with answers are listed next.
compound	label
COc1cc(/C=C2\CCn3c2nc2ccccc2c3=O)cc(OC)c1OC(C)=O	fulfilled
O=c1c2ccccc2nc2n1CC/C2=C\c1ccc(C(F)(F)F)cc1	not fulfilled
O=c1c2ccccc2nc2n1CC/C2=C\c1ccc(O)cc1	not fulfilled
COc1cc(/C=C2\CCn3c2nc2ccccc2c3=O)cc(OC)c1O [ISAINDIGOTONE]	not fulfilled
CC(=O)Oc1ccc(/C=C2\CCn3c2nc2ccccc2c3=O)cc1	fulfilled

Find out if reported Activity for CC(=N)NCc1cccc(CN)c1 [1400W] is less than 400 ng/mL
fulfilled

* * *

# Test system: RAW264.7
# test_details: Antiinflammatory activity against LPS-stimulated mouse RAW264.7 cells assessed as PGE2 accumulation at 10 uM after 20 hrs by RIA relative to control
# Assay type: functional
Please use Criterion met for Activity under 10 ng/mL and Criterion not met for everything else, ties included.

Example cases with answers are listed next.
COc1cc(/C=C2\CCn3c2nc2ccccc2c3=O)cc(OC)c1OC(C)=O Criterion met
COc1cc(/C=C2\CCn3c2nc2ccccc2c3=O)cc(OC)c1O Criterion not met
O=c1c2ccccc2nc2n1CC/C2=C\c1ccccc1 Criterion met
O=c1c2ccccc2nc2n1CC/C2=C\c1ccc(C(F)(F)F)cc1 Criterion not met

Find out if reported Activity for `COc1cc(/C=C2\CCn3c2nc2ccccc2c3=O)cc(OC)c1` is less than 10 ng/mL
Criterion not met

Find out if reported Activity for `O=c1c2ccccc2nc2n1CC/C2=C\c1ccc(F)cc1` is less than 10 ng/mL
Criterion met

Find out if reported Activity for `CS(=O)(=O)Nc1ccc([N+](=O)[O-])cc1OC1CCCCC1` is less than 10 ng/mL
Criterion met

Find out if reported Activity for `O=c1c2ccccc2nc2n1CC/C2=C\c1ccc(O)cc1` is less than 10 ng/mL
Criterion not met

* * *

# experimental_system: Polyunsaturated fatty acid 5-lipoxygenase (Homo sapiens, UniProt P09917)
# test_details: Inhibition of 5LO-mediated LTB4 production in human neutrophils by RIA
Reported IC50 is given for each of the following molecules.
Give the value in nM but do not write nM after it.

COc1cc(/C=C2\CCn3c2nc2ccccc2c3=O)cc(OC)c1O 40

We now examine a further molecule.
Item under review: `COc1cc(/C=C2\CCn3c2nc2ccccc2c3=O)cc(OC)c1OC(C)=O` . Reported IC50?
600

* * *

Reported Activity is given for each of the following compounds.
# test_details: Antioxidant activity against 12-O-tetradecanoylphorbol-13-acetate-stimulated superoxide radical generation in human neutrophils assessed as chemiluminescence unit per 10^6 cells at 10 uM
# Format: functional, Neutrophil
# Set-up: unit not given here
I'd appreciate a reply containing only the number, no unit.

Example entries and their recorded answers appear below.
compound	quantity	readout_value
O=c1c2ccccc2nc2n1CC/C2=C\c1ccc(O)cc1	Activity	3269.2
CC(=O)Oc1ccc(/C=C2\CCn3c2nc2ccccc2c3=O)cc1	Activity	2636.4
O=c1c2ccccc2nc2n1CC/C2=C\c1ccc(C(F)(F)F)cc1	Activity	4101.1
O=c1c2ccccc2nc2n1CC/C2=C\c1ccccc1	Activity	2960.4
O=c1c2ccccc2nc2n1CC/C2=C\c1ccc(F)cc1	Activity	3221.7

Item under review: COc1cc(/C=C2\CCn3c2nc2ccccc2c3=O)cc(OC)c1O [ISAINDIGOTONE] . Reported Activity?
570.6

Item under review: `COc1cc(/C=C2\CCn3c2nc2ccccc2c3=O)cc(OC)c1OC(C)=O` . Reported Activity?
2486.9

Item under review: `COc1cc(/C=C2\CCn3c2nc2ccccc2c3=O)cc(OC)c1` . Reported Activity?
4150.7

* * *

# experimental_system: Polyunsaturated fatty acid 5-lipoxygenase (Homo sapiens)
# test_details: Inhibition of 5LO-mediated LTB4 production in calcium ionophore A23187-stimulated human neutrophils at 10 uM by RIA
quantity: Activity (ng/mL)
Give the value in ng/mL but do not write ng/mL after it.

Example entries and their recorded answers appear below.
CCn1c(=O)ccc2cc(COc3cc(F)cc(C4(OC)CCOCC4)c3)ccc21 4.5
CC(=O)Oc1ccc(/C=C2\CCn3c2nc2ccccc2c3=O)cc1 59.8
COc1cc(/C=C2\CCn3c2nc2ccccc2c3=O)cc(OC)c1O 4.2

We now examine a further compound.
Field: Activity (Polyunsaturated fatty acid 5-lipoxygenase (Homo sapiens)). Entry: `O=c1c2ccccc2nc2n1CC/C2=C\c1ccc(O)cc1`
55.9
